tested on: TTR; assay: TTR editing in HEK293_Cas9 cells transfected with dgRNAs (Table 4); type: cell-based, human; settings: HEK293_Cas9 cells (constitutively express Spy Cas9) transfected with dgRNAs
For each entry below, report its Avg % Edit value.
Numbers only, in %.

For orientation, consider the following solved cases.
{"input sequence": "GCCGUGGUGGAAUAGGAGUA (tested as dual guide RNA, chemistry not given here) [CR003387]", "unit string": "%", "Avg % Edit": 24.68}
{"input sequence": "UGUAGAAGGGAUAUACAAAG (tested as dual guide RNA, chemistry not given here) [CR003365]", "unit string": "%", "Avg % Edit": 36.43}
{"input sequence": "AUUGGUGACGACAGCCGUGG (tested as dual guide RNA, chemistry not given here) [CR003389]", "unit string": "%", "Avg % Edit": 34.18}
{"input sequence": "GGAGUAGGGGCUCAGCAGGG (tested as dual guide RNA, chemistry not given here) [CR003382]", "unit string": "%", "Avg % Edit": 29.95}

Okay, now this sequence:
Query ACUGAGGAGGAAUUUGUAGA (tested as dual guide RNA, chemistry not given here) [CR003363] yields Avg % Edit of 31.03
